Please respond with reported AC50 for every item in the list.
tested on: TFEB; experiment: TFEB nuclear translocation assay, HeLa wt cells; type: cell-based; conditions: Homo sapiens, HeLa, 2 h, 2 hrs compound treatment, Table 1 does not say HeLa wt or TRPML1 KO

Return AC50 for the following molecule: CN(C)S(=O)(=O)c1ccc(S(=O)(=O)Nc2ccccc2N2CCC(O)(C(C)(C)C)CC2)cc1 [Compound A-471]
≤ 2000 nM

Supply reported AC50 belonging to this molecule: CCOC(=O)N1CCN(c2ccccc2NS(=O)(=O)c2ccc(S(=O)(=O)N(C)C)cc2)CC1 [Compound A-308]
2010 to 8000 nM

Read the entry NS(=O)(=O)c1ccc(S(=O)(=O)Nc2ccccc2N2CCC(c3ccc(Cl)cc3F)CC2)cc1 [Compound A-482] and write its reported AC50.
2010 to 8000 nM

State, in one line, measured AC50 of COCC1(C)CCN(c2ccccc2CS(=O)(=O)c2ccc(S(=O)(=O)N(C)C)cc2)CC1 [Compound A-493]
≤ 2000 nM
